- Test system: MCF7 (breast) human tumor cell line
- ASSAY DETAILS: three day MTT cytotoxicity assay, MCF7 breast
- Format: cell-based
- CONDITION SUMMARY: MCF7 breast cells, 72 hours
- Procedure: A number of the Flavopereirine derivatives were tested for cytotoxicity against nine (9) human tumor cell lines. Briefly, a three day MTT cytotoxicity assay was performed, which is based on the principle of uptake of MTT (3-(4,5-dimethylthiazol-2-yl)-2,5-diphenyl tetrazolium bromide), a tetrazolium salt, by the metabolically active cells where it is metabolized by active mitochondria into a blue colored formazan product that is read spectrophotometrically. […]
Please respond with reported IC50 (μg/mL) of Flavoperereine derivatives in human tumor cell lines, MCF7 Breast for every item in the list.
One number for each entry, in µg/mL.

These solved cases illustrate the format of a correct answer.
| COMPOUND | U | NUMERIC READOUT |
| --- | --- | --- |
| Fc1ccc(COc2ccc3[n+](c2)CCc2c-3[nH]c3ccccc23)cc1.[O-][Cl+3]([O-])([O-])[O-] [Compound 25] | µg/mL | 34 |
| CCCCOc1ccc2[n+](c1)CCc1c-2[nH]c2ccccc12.[Br-] [Compound 27] | µg/mL | 6 |
| [Br-].c1ccc(COc2ccc3c4[nH]c5ccccc5c4cc[n+]3c2)cc1 [Compound 31] | µg/mL | 4 |
| BrCCCOc1ccc2c3[nH]c4ccccc4c3cc[n+]2c1.[O-][Cl+3]([O-])([O-])[O-] [Compound 30] | µg/mL | 6 |
| CCCCOc1ccc2c3[nH]c4ccccc4c3cc[n+]2c1.[Br-] [Compound 33] | µg/mL | 3 |

Read the next record carefully.
State its IC50 (μg/mL) of Flavoperereine derivatives in human tumor cell lines, MCF7 Breast on MCF7 (breast) human tumor cell line: c1ccc(COc2ccc3c4[nH]c5ccccc5c4cc[n+]3c2)cc1 [Compound 28, 3-benzyloxyindolo[2,3-a]quinolizinium]
5

---

- Test system: PA1 (ovary) human tumor cell line
- ASSAY DETAILS: three day MTT cytotoxicity assay, PA1 ovarian
- Format: cell-based
- CONDITION SUMMARY: PA1 ovarian cells, 72 hours
MEASUREMENT TYPE: IC50 (μg/mL) of Flavoperereine derivatives in human tumor cell lines, PA1 Ovarian

These solved cases illustrate the format of a correct answer.
| MOLECULE | RESULT |
| --- | --- |
| Fc1ccc(COc2ccc3c4[nH]c5ccccc5c4cc[n+]3c2)cc1.[O-][Cl+3]([O-])([O-])[O-] [Compound 32] | 6 µg/mL |
| Brc1ccc(COc2ccc3[n+](c2)CCc2c-3[nH]c3ccccc23)cc1.[Br-] [Compound 26] | >100 µg/mL |
| CCOc1ccc2[n+](c1)CCc1c-2[nH]c2ccccc12 [Compound 24] | 38 µg/mL |
| c1ccc(COc2ccc3c4[nH]c5ccccc5c4cc[n+]3c2)cc1 [Compound 28, 3-benzyloxyindolo[2,3-a]quinolizinium] | 1.5 µg/mL |
| [Br-].c1ccc(COc2ccc3c4[nH]c5ccccc5c4cc[n+]3c2)cc1 [Compound 31] | 4 µg/mL |
| CCCCOc1ccc2c3[nH]c4ccccc4c3cc[n+]2c1.[Br-] [Compound 33] | <1 µg/mL |
| Fc1ccc(COc2ccc3[n+](c2)CCc2c-3[nH]c3ccccc23)cc1.[O-][Cl+3]([O-])([O-])[O-] [Compound 25] | 36 µg/mL |

Read the next record carefully.
State its IC50 (μg/mL) of Flavoperereine derivatives in human tumor cell lines, PA1 Ovarian on PA1 (ovary) human tumor cell line: CCOc1ccc2c3[nH]c4ccccc4c3cc[n+]2c1 [Compound 29, 3-ethoxyindolor-2,3-alquinolizinium]
5 µg/mL

FYI, the data here is from patent US20100256177A1.
